Test Target: human PAH with the R408W mutation (Homo sapiens, UniProt P00439, R408W)
Construct: expressed in transfected cells
Protocol Notes: Cell Based Phenylalanine Flux Assay
Condition Label: A375 cells expressing human R408W PAH; 24 hrs compound incubation; 13C-Tyrosine by LC-MS; average where tested multiple times; read-out: AC50
Measured Quantity: AC50

Take a look at these entries with their results.
[
  {
    "Compound": "N#Cc1ncoc1C(=O)N1CCc2[nH]cnc2C1c1ccc2ccccc2n1 (stereo in doubt) [Example 58]",
    "Obs Value": "1000 to 5000 nM"
  },
  {
    "Compound": "FC(F)(F)c1cnc(N2CCc3[nH]cnc3C2c2ccc3ccccc3n2)nc1 (stereo in doubt) [Example 30]",
    "Obs Value": "> 5000 nM"
  },
  {
    "Compound": "Cn1cc(C(=O)N2CCc3[nH]cnc3C2c2ccc3ccccc3n2)c(C(F)F)n1 (stereo in doubt) [Example 84]",
    "Obs Value": "1000 to 5000 nM"
  },
  {
    "Compound": "Fc1ccc(-c2nnc(N3CCc4[nH]cnc4C3c3ccc4ccccc4n3)o2)cc1 (stereo in doubt) [Example 20]",
    "Obs Value": "500 to 1000 nM"
  },
  {
    "Compound": "Cc1ncoc1C(=O)N1CC2(CC2)c2[nH]cnc2[C@H]1c1cc2ccccc2cn1 [Example 493]",
    "Obs Value": "< 500 nM"
  }
]

Fill in: AC50 of O=C(c1cnn2ccc(Cl)cc12)N1CCc2[nH]cnc2[C@H]1c1cc2ccccc2cn1 [Example 462] is ___
< 500 nM

Fill in: AC50 of O=C(c1nnc(-c2ccc(C(F)(F)F)cn2)o1)N1CCc2[nH]cnc2[C@H]1c1ncc2ccccc2n1 [Example 170] is ___
500 to 1000 nM

----------
Test Target: human PAH with the R408W mutation (Homo sapiens, UniProt P00439, R408W)
Construct: expressed in transfected cells
Sequence (P00439 1-452 R408W): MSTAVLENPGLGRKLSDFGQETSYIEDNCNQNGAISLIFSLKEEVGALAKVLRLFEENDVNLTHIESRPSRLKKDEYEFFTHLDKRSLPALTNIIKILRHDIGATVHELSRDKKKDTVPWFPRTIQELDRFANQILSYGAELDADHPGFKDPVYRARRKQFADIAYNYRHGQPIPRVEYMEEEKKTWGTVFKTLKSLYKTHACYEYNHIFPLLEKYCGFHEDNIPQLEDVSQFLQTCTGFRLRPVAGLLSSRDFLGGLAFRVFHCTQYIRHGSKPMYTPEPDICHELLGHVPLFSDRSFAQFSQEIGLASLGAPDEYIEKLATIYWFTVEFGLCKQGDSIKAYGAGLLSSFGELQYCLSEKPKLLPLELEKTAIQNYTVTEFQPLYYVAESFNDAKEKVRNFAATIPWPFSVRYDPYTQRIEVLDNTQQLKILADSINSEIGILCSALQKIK
Protocol Notes: Cell Based Phenylalanine Flux Assay
Condition Label: A375 cells expressing human R408W PAH; 24 hrs compound incubation; 13C-Tyrosine by LC-MS; average where tested multiple times; read-out: AC50
Measured Quantity: AC50

Fill in: AC50 of CC(C)(C)c1ncc(C(=O)N2CCc3[nH]cnc3[C@H]2c2cc3ccccc3cn2)o1 is ___
< 500 nM

Fill in: AC50 of Cn1cncc1-c1nnc(C(=O)N2CCc3[nH]cnc3[C@H]2c2cc3ccccc3cn2)o1 is ___
500 to 1000 nM

Fill in: AC50 of C[C@@H]1CN(C(=O)c2nnc(-c3ccc(F)cn3)o2)[C@H](c2cc3ccccc3cn2)c2nc[nH]c21 is ___
1000 to 5000 nM

Fill in: AC50 of Cn1ccc(-c2nnc(C(=O)N3CCc4[nH]cnc4[C@H]3c3cc4ccccc4cn3)o2)n1 is ___
< 500 nM

Fill in: AC50 of O=C(c1cnc(-c2ccccn2)s1)N1CCc2[nH]cnc2[C@@H]1c1cc2ccccc2nn1 is ___
1000 to 5000 nM

Fill in: AC50 of O=C(c1nnc(C2CC2)o1)N1CCc2[nH]cnc2C1c1ccc2ccccc2n1 (stereo in doubt) [Example 10] is ___
1000 to 5000 nM

Fill in: AC50 of O=C(c1cn[nH]c1Cl)N1CCc2[nH]cnc2C1c1ccc2ccccc2n1 (stereo in doubt) [Example 124] is ___
500 to 1000 nM

Fill in: AC50 of O=C(c1nnc(-c2cnn(C(F)F)c2)o1)N1CCc2[nH]cnc2C1c1ccc2ccccc2n1 (stereo in doubt) [Example 63] is ___
< 500 nM

Fill in: AC50 of CC(C)(C)c1nnc(C(=O)N2CCc3[nH]cnc3[C@H]2c2ncc3ccccc3n2)o1 is ___
< 500 nM

Fill in: AC50 of O=C(c1nnc(C2CC(F)(F)C2)o1)N1CCc2[nH]cnc2[C@@H]1c1ncc2ccccc2n1 is ___
> 5000 nM

Fill in: AC50 of O=C(c1cnn2ccc(Br)cc12)N1CCc2[nH]cnc2[C@H]1c1cc2ccccc2cn1 is ___
< 500 nM

Fill in: AC50 of CC(C)(O)c1nc(Cl)c(C(=O)N2CCc3[nH]cnc3C2c2ccc3ccccc3n2)o1 (stereo in doubt) [Example 113] is ___
< 500 nM

Fill in: AC50 of O=C(c1cnn2cc(N3CCOCC3)ccc12)N1CCc2[nH]cnc2[C@H]1c1cc2ccccc2cn1 is ___
< 500 nM

Fill in: AC50 of O=C(c1nnc(-c2cc(C(F)(F)F)ccn2)o1)N1CCc2[nH]cnc2[C@@H]1c1ncc2ccccc2n1 is ___
1000 to 5000 nM

Fill in: AC50 of CN(C)c1nnc(C(=O)N2CCc3[nH]cnc3[C@@H]2c2cc3ccccc3cn2)o1 is ___
> 5000 nM

Fill in: AC50 of O=C(c1ccn2ncccc12)N1CCc2[nH]cnc2[C@H]1c1cc2ccccc2cn1 is ___
< 500 nM

Fill in: AC50 of CN1CCN(c2cn3ncc(C(=O)N4CCc5[nH]cnc5[C@H]4c4cc5ccccc5cn4)c3cc2Cl)CC1 is ___
< 500 nM

Fill in: AC50 of CC(C)(C)c1nnc(C(=O)N2CCc3[nH]cnc3[C@@H]2c2ncc3ccccc3n2)o1 is ___
> 5000 nM

Fill in: AC50 of O=C(c1cnc(-c2cnn(CC(F)(F)F)c2)o1)N1CCc2[nH]cnc2[C@H]1c1cc2ccccc2cn1 is ___
< 500 nM

Fill in: AC50 of Cc1nn(C)cc1-c1nnc(C(=O)N2CCc3[nH]cnc3[C@H]2c2cc3ccccc3cn2)o1 is ___
< 500 nM

Fill in: AC50 of CC(C)(F)c1ncc(C(=O)N2CCc3[nH]cnc3C2c2ccc3ccccc3n2)s1 (stereo in doubt) [Example 16] is ___
> 5000 nM

Fill in: AC50 of Cn1ncnc1C(=O)N1CCc2[nH]cnc2[C@H]1c1ncc2ccccc2n1 is ___
< 500 nM

Fill in: AC50 of Cn1cc(-c2nnc(C(=O)N3CCc4[nH]cnc4C3c3ccc4ccccc4n3)o2)cn1 (stereo in doubt) [Example 47] is ___
500 to 1000 nM
